Where do the numbers come from? From PubChem BioAssay AID504479.

# Tested on: YBR084C-A
# Experiment: GFP reporter expression in TORC1-bypass yeast, mechanism study for yeast TOR pathway modulator project, S. cerevisiae, TORC1 bypass vs wild-type strains (AID 504479)
# Experimental parameters: fluorescence ratio vs DMSO, at 10 µM
List of GFP ratio vs DMSO values.
Test readout: GFP ratio vs DMSO

[[record]]
compound = "O=C(Oc1c(Cl)cc(Cl)c2cccnc12)c1ccco1"
measured_target = "YBR084C-A"
quantitative_readout = 1.31

[[record]]
compound = "O=S(=O)(CCN(CCS(=O)(=O)C(F)(F)F)CC1CCCO1)C(F)(F)F (stereo not given)"
measured_target = "YBR084C-A"
quantitative_readout = 1.05

[[record]]
compound = "CCCOc1ccc(C(=O)NNC(=S)NC(=O)CC)cc1"
measured_target = "YBR084C-A"
quantitative_readout = 1.33

[[record]]
compound = "Cc1ccc(C2=NOC(=O)/C2=C\\c2ccc(C)o2)cc1"
measured_target = "YBR084C-A"
quantitative_readout = 1.01

[[record]]
compound = "O=C(OCn1ncc(Br)c(Br)c1=O)c1ccc(F)cc1"
measured_target = "YBR084C-A"
quantitative_readout = 1.03

[[record]]
compound = "CC(=O)SC(C[N+](=O)[O-])c1cn(C(C)=O)c2ccccc12 (stereo not given)"
measured_target = "YBR084C-A"
quantitative_readout = 1.18

[[record]]
compound = "Cc1ccc(C(=O)NNC(=S)NC(=O)COc2ccccc2)cc1"
measured_target = "YBR084C-A"
quantitative_readout = 1.27

[[record]]
compound = "Cc1cc(C(=O)Nc2nc(-c3ccccn3)cs2)ccc1[N+](=O)[O-]"
measured_target = "YBR084C-A"
quantitative_readout = 0.985

[[record]]
compound = "O=[N+]([O-])c1cc(S(=O)(=O)C(F)(F)F)ccc1Sc1nc2ccccc2s1"
measured_target = "YBR084C-A"
quantitative_readout = 0.985

[[record]]
compound = "O=C(CCc1ccccc1)NNC(=S)NC(=O)c1ccccc1"
measured_target = "YBR084C-A"
quantitative_readout = 1.31


###

# Tested on: YNL142W
# Experiment: GFP reporter expression in TORC1-bypass yeast, mechanism study for yeast TOR pathway modulator project, S. cerevisiae, TORC1 bypass vs wild-type strains (AID 504479)
# Experimental parameters: fluorescence ratio vs DMSO, at 10 µM
The source made the active and inactive calls.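 The calls were made as follows: active = GFP ratio vs DMSO below 0.65 in a strain, using the primary screen cutoff set for that strain's protein target; inactive = the rest.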
Classes used: true for active, false for inactive

[[record]]
compound = "COc1ccc([N+](=O)[O-])c(S(=O)(=O)c2ccccc2)n1"
category = "false"

[[record]]
compound = "O=[N+]([O-])c1cc(S(=O)(=O)C(F)(F)F)ccc1Sc1nc2ccccc2s1"
category = "false"

[[record]]
compound = "CC(C)(C)C(=O)NC(=S)NNC(=O)c1ccc(-c2ccccc2)cc1"
category = "false"

[[record]]
compound = "O=C(CCc1ccccc1)NNC(=S)NC(=O)c1ccccc1"
category = "false"

[[record]]
compound = "O=C(OCn1ncc(Br)c(Br)c1=O)c1c(F)cccc1F"
category = "false"

[[record]]
compound = "COc1ccc(/C=C/C(=O)NC(=S)NNC(=O)c2cnccn2)cc1"
category = "false"

[[record]]
compound = "Cc1cc(C(=O)Nc2nc(-c3ccccn3)cs2)ccc1[N+](=O)[O-]"
category = "false"

[[record]]
compound = "CO[C@H]1C[C@@H]2CC[C@@H](C)[C@@](O)(O2)C(=O)C(=O)N2CCCC[C@H]2C(=O)O[C@H]([C@H](C)C[C@@H]2CC[C@@H](O)[C@H](OC)C2)CC(=O)[C@H](C)/C=C(\\C)[C@@H](O)[C@@H](OC)C(=O)[C@H](C)C[C@H](C)/C=C/C=C/C=C/1C"
category = "true"

[[record]]
compound = "Cc1ccc(C(=O)NNC(=S)NC(=O)COc2ccccc2)cc1"
category = "false"

[[record]]
compound = "O=C1ON=C(c2ccccc2)/C1=C\\c1ccco1"
category = "false"

[[record]]
compound = "COc1ccc(C(=O)NNC(=S)NC(=O)/C=C/c2cccs2)cc1"
category = "false"

[[record]]
compound = "O=C(Oc1ccnc2cc(Cl)ccc12)N1CCCCCC1"
category = "true"

[[record]]
compound = "O=S(=O)(CCN(CCS(=O)(=O)C(F)(F)F)CC1CCCO1)C(F)(F)F (centres undefined)"
category = "false"

[[record]]
compound = "C/C(=N\\NC(=O)c1ccc(C(C)(C)C)cc1)c1ccccn1"
category = "false"

[[record]]
compound = "O=C1ON=C(c2ccccc2)/C1=C/c1ccco1"
category = "false"

[[record]]
compound = "Cn1ncc(S(=O)(=O)Cc2ccccc2)c(Cl)c1=O"
category = "false"

[[record]]
compound = "Cc1ccc(/C=C2/C(=O)ON=C2c2ccccc2)o1"
category = "false"

[[record]]
compound = "O=[N+]([O-])c1ccc(O)c2ncccc12"
category = "false"

[[record]]
compound = "Clc1ccc(N=c2ssnc2Cl)cc1"
category = "false"

[[record]]
compound = "CCc1ccc(OCC(=O)NNC(=S)NC(=O)C2CC2)c(Br)c1"
category = "false"

[[record]]
compound = "CC(Oc1ccc(Cl)cc1)C(=O)NNC(=S)NC(=O)c1ccco1 (centres undefined)"
category = "false"

[[record]]
compound = "CN1CCN(C(c2ccc(C(F)(F)F)cc2)c2ccc3cccnc3c2O)CC1 (centres undefined)"
category = "false"

[[record]]
compound = "Cc1ccc(C(c2cc(Cl)c3cccnc3c2O)N2CCN(C)CC2)cc1 (centres undefined)"
category = "false"

[[record]]
compound = "CCOC(=O)c1c(C)oc2c1c(C(c1cccnc1)N1CCOCC1)c(O)c1ccccc12 (centres undefined)"
category = "false"

[[record]]
compound = "COc1ccc([N+](=O)[O-])c(S(=O)(=O)c2ccc(Cl)cc2)n1"
category = "false"

[[record]]
compound = "O=[N+]([O-])c1cc(Cl)c2cccnc2c1O"
category = "false"

[[record]]
compound = "O=[N+]([O-])c1ccc(S(=O)(=O)c2cccc(C(F)(F)F)c2)nc1"
category = "false"

[[record]]
compound = "O=[N+]([O-])c1cc(O)c2ncccc2c1"
category = "false"

[[record]]
compound = "CCSc1nnc(NC(=O)c2ccccn2)s1"
category = "false"


###

# Test system: YCL025C
# Experiment: GFP reporter expression in TORC1-bypass yeast, mechanism study for yeast TOR pathway modulator project, S. cerevisiae, TORC1 bypass vs wild-type strains (AID 504479)
# Experimental parameters: fluorescence ratio vs DMSO, at 10 µM
Activity calls are given as the source filed them.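 How the source made its calls: active means GFP ratio vs DMSO below 0.65 in a strain, using the primary screen cutoff set for that strain's protein target; inactive means the rest.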
Outcome codes: active, inactive

[[record]]
compound = "O=[N+]([O-])c1cc(S(=O)(=O)C(F)(F)F)ccc1Sc1nc2ccccc2s1"
category = "inactive"

[[record]]
compound = "CCOC(=O)c1c(C)oc2c1c(C(c1cccnc1)N1CCOCC1)c(O)c1ccccc12 (stereo not drawn)"
category = "inactive"

[[record]]
compound = "Cc1ccc(S(=O)(=O)c2ncccc2[N+](=O)[O-])cc1"
category = "inactive"

[[record]]
compound = "O=S(=O)(CCN(CCS(=O)(=O)C(F)(F)F)CC1CCCO1)C(F)(F)F (stereo not drawn)"
category = "inactive"

[[record]]
compound = "c1ccc(-c2cccc(-c3ccccn3)n2)nc1"
category = "inactive"

[[record]]
compound = "CSC1=NS(=O)(=O)c2c(C)nn(C)c2S1"
category = "inactive"

[[record]]
compound = "O=[N+]([O-])c1ccc(O)c2ncccc12"
category = "inactive"

[[record]]
compound = "Clc1ccc(N=c2ssnc2Cl)cc1"
category = "inactive"

[[record]]
compound = "O=[N+]([O-])c1cc(O)c2ncccc2c1"
category = "inactive"

[[record]]
compound = "O=[N+]([O-])c1cc(Cl)c2cccnc2c1O"
category = "inactive"

[[record]]
compound = "O=C(CCc1ccccc1)NNC(=S)NC(=O)c1ccccc1"
category = "inactive"

[[record]]
compound = "CC1=NN(c2ccccc2)C(=O)C1C(c1ccccc1[N+](=O)[O-])C(C#N)C#N (stereo not drawn)"
category = "inactive"

[[record]]
compound = "CN1CCN(C(c2ccc(C(F)(F)F)cc2)c2ccc3cccnc3c2O)CC1 (stereo not drawn)"
category = "inactive"

[[record]]
compound = "O=C(OCn1ncc(Br)c(Br)c1=O)c1ccc(F)cc1"
category = "inactive"

[[record]]
compound = "O=[N+]([O-])c1ccc(S(=O)(=O)c2cccc(C(F)(F)F)c2)nc1"
category = "inactive"

[[record]]
compound = "COc1ccc(/C=C/C(=O)NC(=S)NNC(=O)c2cnccn2)cc1"
category = "inactive"

[[record]]
compound = "O=C(Oc1c(Cl)cc(Cl)c2cccnc12)c1cccc([N+](=O)[O-])c1"
category = "inactive"

[[record]]
compound = "COc1ccc([N+](=O)[O-])c(S(=O)(=O)c2ccccc2)n1"
category = "inactive"

[[record]]
compound = "C/C(=N\\NC(=O)c1ccc(C(C)(C)C)cc1)c1ccccn1"
category = "inactive"

[[record]]
compound = "CC(C)(C)C(=O)C(Cl)C(=O)Nc1ccccc1 (stereo not drawn)"
category = "inactive"

[[record]]
compound = "CC(Oc1ccc(Cl)cc1)C(=O)NNC(=S)NC(=O)c1ccco1 (stereo not drawn)"
category = "inactive"

[[record]]
compound = "O=C(Oc1ccnc2cc(Cl)ccc12)N1CCCCCC1"
category = "active"

[[record]]
compound = "Cc1ccc(C2=NOC(=O)/C2=C\\c2ccc(C)o2)cc1"
category = "inactive"

[[record]]
compound = "O=C(OCn1ncc(Br)c(Br)c1=O)c1c(F)cccc1F"
category = "inactive"

[[record]]
compound = "CC(=O)c1ccc(N2CCN(C(=O)c3ccc(Br)cc3)CC2)c(F)c1"
category = "inactive"

[[record]]
compound = "N/C(Cc1ccc(Cl)cc1)=N\\OC(=O)c1cccc2ccccc12"
category = "inactive"

[[record]]
compound = "O=C(Oc1c(Cl)cc(Cl)c2cccnc12)c1ccco1"
category = "inactive"

[[record]]
compound = "Cc1ccc(C(c2cc(Cl)c3cccnc3c2O)N2CCN(C)CC2)cc1 (stereo not drawn)"
category = "inactive"

[[record]]
compound = "Cc1cc(C(=O)Nc2nc(-c3ccccn3)cs2)ccc1[N+](=O)[O-]"
category = "inactive"

[[record]]
compound = "Cc1ccc(C(=O)NNC(=S)NC(=O)COc2ccccc2)cc1"
category = "inactive"

[[record]]
compound = "CCSc1nnc(NC(=O)c2ccccn2)s1"
category = "inactive"

[[record]]
compound = "Cc1ccc(S(=O)(=O)c2ccc([N+](=O)[O-])cn2)cc1"
category = "inactive"

[[record]]
compound = "O=C(NC(=S)NNC(=O)c1cnccn1)c1ccc(F)cc1"
category = "inactive"

